Target: Tyrosinase (Agaricus bisporus) (UniProt O42713)
Sequence (whole entry): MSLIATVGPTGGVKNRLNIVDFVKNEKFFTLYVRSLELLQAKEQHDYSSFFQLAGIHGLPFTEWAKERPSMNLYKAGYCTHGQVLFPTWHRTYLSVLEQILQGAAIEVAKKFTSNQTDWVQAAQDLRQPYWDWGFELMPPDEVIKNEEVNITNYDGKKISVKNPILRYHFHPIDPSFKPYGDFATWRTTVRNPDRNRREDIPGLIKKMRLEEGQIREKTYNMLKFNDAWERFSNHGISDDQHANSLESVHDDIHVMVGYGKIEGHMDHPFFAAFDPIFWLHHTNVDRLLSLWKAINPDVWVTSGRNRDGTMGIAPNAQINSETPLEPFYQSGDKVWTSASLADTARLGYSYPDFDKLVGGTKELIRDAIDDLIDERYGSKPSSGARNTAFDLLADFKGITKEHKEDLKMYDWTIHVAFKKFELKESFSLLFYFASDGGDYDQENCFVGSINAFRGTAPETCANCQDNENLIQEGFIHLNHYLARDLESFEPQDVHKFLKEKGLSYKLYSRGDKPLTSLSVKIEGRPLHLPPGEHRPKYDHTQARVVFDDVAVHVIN
Assay: Inhibition of mushroom tyrosinase assessed as 3,4-dihydroxy-L-phenylalanine oxidation at 0.1 mM
reported.metric: inhibition (%)
Unit % implied. Number only.

Some solved entries appear below for comparison.
molecule	measurement.units	reported.result
O=Cc1ccc(O[C@@H]2OC[C@@H](O)[C@@H](O)[C@H]2O)cc1	%	42
O=Cc1ccc(O[C@@H]2O[C@H](CO)[C@@H](O)[C@@H](O)[C@H]2O)cc1 [HELICIDE]	%	10

From here, focus on the item given below.
Tyrosinase (Agaricus bisporus) (UniProt O42713) / inhibition / O=Cc1ccc(O[C@@H]2O[C@@H]3CO[C@@H](c4ccccc4)O[C@H]3[C@@H](O)[C@H]2O)cc1 : value? 77

---

Molecular target: Tyrosinase (Agaricus bisporus, UniProt O42713)
Sequence (O42713 whole entry): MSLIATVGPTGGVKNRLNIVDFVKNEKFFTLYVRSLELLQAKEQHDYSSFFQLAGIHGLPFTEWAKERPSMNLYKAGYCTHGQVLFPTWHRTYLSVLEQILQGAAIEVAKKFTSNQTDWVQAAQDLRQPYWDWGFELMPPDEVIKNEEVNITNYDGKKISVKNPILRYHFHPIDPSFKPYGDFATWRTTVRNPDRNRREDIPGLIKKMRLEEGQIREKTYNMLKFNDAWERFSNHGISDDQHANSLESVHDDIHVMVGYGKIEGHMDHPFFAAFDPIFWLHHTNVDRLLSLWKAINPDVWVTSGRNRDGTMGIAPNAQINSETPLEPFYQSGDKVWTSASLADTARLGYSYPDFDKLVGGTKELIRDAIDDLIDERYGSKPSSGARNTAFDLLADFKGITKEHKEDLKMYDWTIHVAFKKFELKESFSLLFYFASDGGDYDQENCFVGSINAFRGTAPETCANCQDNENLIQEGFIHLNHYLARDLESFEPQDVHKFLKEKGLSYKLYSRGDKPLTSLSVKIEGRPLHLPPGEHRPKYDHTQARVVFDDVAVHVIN
reported.metric: pIC50
pIC50 here is simply -log10 of the concentration when that concentration is written in mol/L.

compound	target.entity	reported.metric	reported.result
CC1(C)O[C@@H]2[C@H](O)[C@@H](CO)O[C@@H](Oc3ccc(C=O)cc3)[C@@H]2O1	Tyrosinase (Agaricus bisporus, UniProt O42713)	pIC50	3.21

Request the reported pIC50 associated with O=Cc1ccc(O[C@@H]2O[C@@H]3CO[C@@H](c4ccccc4)O[C@H]3[C@@H](O)[C@H]2O)cc1 4.28

Which pIC50 reading was recorded for the compound O=Cc1ccc(O[C@@H]2O[C@H](CO)[C@@H](O)[C@@H](O)[C@H]2O)cc1 [HELICIDE] ? 2.60

pIC50 for O=Cc1ccc(O[C@@H]2O[C@H](CO)[C@@H](O)[C@H](O)[C@H]2O)cc1 ? 3.03

Using the record for O=Cc1ccc(O)cc1 [4-HYDROXYBENZALDEHYDE] , report its pIC50. 2.95
